Tested on: WI-38 cells
Details: read-out: Est. ED50; dose response 0.6-20 μM; H2O2-resistance
// reported EC50 per item
reported-property: EC50 (µM)

>>> df
                                   compound  test_system  measured_result
0            CN1CCC=C(Cc2nnc(O)c3ccccc23)C1  WI-38 cells             3.42
1                     Oc1ncnc2sc3c(c12)CCC3  WI-38 cells             12.5
2  Cc1ccc(S(=O)(=O)/C(C#N)=C/c2c(Oc3ccc(Cl)c(C)c3)nc3ccccn3c2=O)cc1  WI-38 cells             15.7
3  CCc1ccc(Oc2nc3ccccn3c(=O)c2/C=C(\C#N)C(=O)NC2CCCCC2)cc1  WI-38 cells             10.2
4  O=C(Nc1ccc(Cl)c(Cl)c1)c1ccc([N+](=O)[O-])o1  WI-38 cells             2.95
5              COCCCN1Cc2cccc(C(N)=O)c2C1=O  WI-38 cells               20
6  O=C(NCc1cccnc1)/C(=C\c1ccc(Br)cc1)S(=O)(=O)c1ccccc1  WI-38 cells             24.7
7                Oc1nnc(Cc2ccncc2)c2ccccc12  WI-38 cells             3.05
8  O=C(CC1(O)C(=O)Nc2ccc(Br)cc21)c1ccc(Cl)cc1 (stereo not shown)  WI-38 cells               20
9  CCCN1C/C(=C\c2ccc(F)cc2)C(=O)/C(=C/c2ccc(F)cc2)C1  WI-38 cells               20

====

Tested on: WI-38 cells
Experiment: Long-term effects on cell viability (5 days, ATP; morphology, PI imaging)
Format: cell-based
Details: human, 5 days, 10 μM
// reported Q = Potential toxicity per item
reported-property: Q = Potential toxicity

>>> print(df.to_string())
                                   compound       reported_property  measured_result
0    COc1ccc(/C=C2\SC(=N)N(c3nccs3)C2=O)cc1  Q = Potential toxicity                1
1             Oc1ccccc1-c1noc(-c2ccccc2O)n1  Q = Potential toxicity                1
2  O=[N+]([O-])c1ccccc1S(=O)(=O)Nc1cccc2cccnc12  Q = Potential toxicity                0
3      COc1ccc(C(=O)/C=C/c2ccccc2Br)c(OC)c1  Q = Potential toxicity                0
4      CCCC(=O)Nc1ccc(-c2cn3cccc(C)c3n2)cc1  Q = Potential toxicity                0
5      Cc1cc(C)c(C(=O)/C=C/c2ccccc2F)c(O)n1  Q = Potential toxicity                0
6  CNC(=O)/C(C#N)=C/c1c(Oc2ccc(C(C)(C)C)cc2)nc2ccccn2c1=O  Q = Potential toxicity                0
7             [O-][n+]1onc2c3nsnc3c(Br)cc21  Q = Potential toxicity                0
8     COc1ccc(C(=O)/C=C/c2ccc(F)cc2)c(OC)c1  Q = Potential toxicity                0
9  CC1C(=O)C(C)C(c2cc(Cl)ccc2O)NC1c1cc(Cl)ccc1O (stereo not shown)  Q = Potential toxicity                0
